assay_method_text: Hepatotoxicity against mouse TAMH cells assessed as cell viability at 62.5 uM incubated for 48 hrs by MTT assay
Assay type: toxicity, cell-based
particulars: read-out: Activity
measured_attribute: viability at 48 h, 62.5 µM (%)
The answer is to be given in %; state only the numeric part.

Memo: `CSc1ccc(OCc2ncc([N+](=O)[O-])n2C)cc1` , reported viability at 48 h, 62.5 µM: 90

* * *

assay_method_text: Metabolic stability in rat liver S9 fraction assessed as compound remaining at 20 uM measured after 32 mins in presence of NADP and GSH by HPLC analysis
Assay type: ADME, subcellular
particulars: read-out: Stability
// classify: if (remaining at 32 min, 20 µM < 90%) criterion met else criterion not met

Take a look at these entries with their results.
Cn1c([N+](=O)[O-])cnc1COc1ccc(S(C)(=N)=O)cc1 (stereo not drawn): criterion not met
CSc1ccc(NCc2ncc([N+](=O)[O-])n2C)cc1: criterion met
CSc1ccc(OCc2ncc([N+](=O)[O-])n2C)cc1: criterion met
COc1ccc(Cn2ccn3cc([N+](=O)[O-])nc3c2=O)cc1: criterion not met

Quick check: does `CSc1ccc(CCc2ncc([N+](=O)[O-])n2C)cc1` have remaining at 32 min, 20 µM under 90%? criterion met

Quick check: does CS(=O)(=O)c1ccc(OCC2Cn3cc([N+](=O)[O-])nc3O2)cc1 (stereo not drawn) have remaining at 32 min, 20 µM under 90%? criterion not met

Quick check: does `CSc1ccc(OCc2ncc(C#N)n2C)cc1` have remaining at 32 min, 20 µM under 90%? criterion met

* * *

System: Leishmania donovani
assay_method_text: Antileishmanial activity against wild type Leishmania donovani HU3 promastigotes […] assessed as inhibition of parasite growth incubated for 72 hrs by automatic microtiter plate reader analysis
Type: functional, organism-based
measured_attribute: pIC50
The value called pIC50 is obtained by taking minus log10 of the concentration in mol/L.

Some entries whose results are on file:
CSc1ccc(OC[C@H]2Cn3cc([N+](=O)[O-])nc3O2)cc1: 5.96
Cn1c([N+](=O)[O-])cnc1COc1ccc([S+](C)[O-])cc1 (configuration not stated) [FEXINIDAZOLE SULFOXIDE]: 5.47
CCCCCCCCCCCCCCCCOP(=O)([O-])OCC[N+](C)(C)C: 5.16
Cn1c([N+](=O)[O-])cnc1C(=O)Nc1ccc(F)cc1C(F)(F)F: 5.09
CSc1ccc(C(=O)Nc2ccc3c(c2)B(O)OC3(C)C)cc1: 4.92

`CSc1ccc(CCc2ncc([N+](=O)[O-])n2C)cc1` tested on Leishmania donovani gave pIC50: 4.90

`CCc1ccc(OCc2ncc([N+](=O)[O-])n2C)cc1` tested on Leishmania donovani gave pIC50: 5.30

* * *

assay_method_text: Metabolic stability in rat liver S9 fraction assessed as compound remaining at 20 uM measured after 32 mins in presence of NADP and GSH by HPLC analysis
Type: ADME, subcellular
particulars: read-out: Stability
Overview of reported remaining at 32 min, 20 µM across a group of molecules:
The answer is to be given in %; state only the numeric part.

Some entries whose results are on file:
CCc1ccc(OCc2ncc([N+](=O)[O-])n2C)cc1: 96.4
CSc1ccc(OC[C@H]2Cn3cc([N+](=O)[O-])nc3O2)cc1: 92.1
CSc1ccc(CCc2ncc([N+](=O)[O-])n2CCO)cc1: 76.8

Memo: `CSc1ccc(OC[C@@H]2Cn3cc([N+](=O)[O-])nc3O2)cc1` , reported remaining at 32 min, 20 µM: 97

Memo: `CSc1ccc(NC(=O)c2ncc([N+](=O)[O-])[nH]2)cc1` , reported remaining at 32 min, 20 µM: 68.2

Memo: Cn1c([N+](=O)[O-])cnc1CCc1ccc(S(C)(=N)=O)cc1 (stereo unspecified) , reported remaining at 32 min, 20 µM: 100
